assay-notes: In vivo PK study in male Sprague Dawley rats
details: male, Sprague Dawley, rat, plasma; rats, 1 mg/kg IV; read-out: AUCLast Mean
readout-label: AUC(0-t) (ng·h/mL)
Quick note: give the figure in ng·h/mL, leave out the unit.

AUC(0-t) lookup needed for C[C@H](n1cnc2c(-c3cnn(C)c3)nc(-c3ccc(Cl)cc3)cc2c1=O)C(C)(C)O , thanks.
2010

What measured AUC(0-t) goes with C[C@@H](CO)n1cnc2c(-c3cccnc3)nc(-c3ccc(C(F)(F)F)cn3)cc2c1=O ?
2350

Suppose we examine the compound CC(C)(O)Cn1cnc2c(-c3cccnc3)nc(-c3ccc(C(F)(F)F)cn3)cc2c1=O ; what AUC(0-t) value has been reported?
4410

Which AUC(0-t) is reported for this compound? C[C@@H](CO)n1cnc2c(-c3cccc(F)c3)nc(-c3ccc(Cl)cc3)cc2c1=O
659

For the compound shown here, Cn1cc(-c2nc(-c3ccc(C(F)(F)F)nc3)cc3c(=O)n(CC(C)(C)O)cnc23)cn1 , give the reported AUC(0-t).
2910

What does the data say about its AUC(0-t)? Entry: Cn1cc(-c2nc(-c3ccc(C(F)(F)F)cn3)cc3c(=O)n(CC(C)(C)O)cnc23)cn1
2790

// AUC(0-t) lookup, key: O=c1c2cc(-c3ccc(C(F)(F)F)nc3)nc(-c3cccnc3)c2ncn1[C@@H]1COC[C@H]1O
1200

====

So I've got a bunch of compounds here, and I need their inhibition at 10 µM values.
test-system: CYP2D6 (Homo sapiens)
Construct: from tissue; host or cells: human liver microsomes (HLM)
Sequence (P10635 whole entry): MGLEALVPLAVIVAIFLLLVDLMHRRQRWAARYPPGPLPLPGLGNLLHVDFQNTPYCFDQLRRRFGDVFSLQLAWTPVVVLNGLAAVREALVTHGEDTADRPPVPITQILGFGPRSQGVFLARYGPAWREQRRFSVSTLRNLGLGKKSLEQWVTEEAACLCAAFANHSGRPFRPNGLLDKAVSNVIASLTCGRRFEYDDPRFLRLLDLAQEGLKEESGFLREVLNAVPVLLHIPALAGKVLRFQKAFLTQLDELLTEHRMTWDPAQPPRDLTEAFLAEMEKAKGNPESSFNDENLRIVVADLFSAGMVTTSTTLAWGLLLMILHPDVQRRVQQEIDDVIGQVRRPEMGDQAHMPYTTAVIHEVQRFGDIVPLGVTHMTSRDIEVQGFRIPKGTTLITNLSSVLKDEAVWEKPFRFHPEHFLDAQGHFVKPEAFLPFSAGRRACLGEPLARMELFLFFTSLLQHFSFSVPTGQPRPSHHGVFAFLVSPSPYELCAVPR
assay-notes: CYP Inhibition Assay in human liver microsomes, CYP2D6
Format: in vitro ADME
details: pH 7.4
// units = %; emit number, no label

# input compound: C[C@@H](CO)n1cnc2c(-c3cccnc3)nc(-c3ccc(C(F)(F)F)cn3)cc2c1=O ; wanted: its inhibition at 10 µM
7.43

May I ask what inhibition at 10 µM has been recorded for CC(C)(O)Cn1cnc2c(-c3cccnc3)nc(-c3ccc(C(F)(F)F)nc3)cc2c1=O ?
7.19

Please report the recorded inhibition at 10 µM for O=c1c2cc(-c3ccc(C(F)(F)F)nc3)nc(-c3cccnc3)c2ncn1[C@@H]1COC[C@H]1O .
8

Quick one: inhibition at 10 µM for CC(C)(O)Cn1cnc2c(-c3cccnc3)nc(-c3ccc(C(F)(F)F)cn3)cc2c1=O ?
2.73

====

assay-notes: In vivo PK study in male CD1 mice
details: mice, 1 mg/kg IV
readout-label: CI Mean (mL/min/kg)
The reply should be a number in mL/min/kg, with the unit left off.

Could you tell me which CI Mean is on file for CC(C)(O)Cn1cnc2c(-c3cccnc3)nc(-c3ccc(C(F)(F)F)nc3)cc2c1=O ?
57

I would be grateful if you could share the reported CI Mean for C[C@@H](CO)n1cnc2c(-c3cccnc3)nc(-c3ccc(C(F)(F)F)cn3)cc2c1=O .
29.3

Returns the measured CI Mean for the input compound. Input: CC(C)(O)Cn1cnc2c(-c3cccnc3)nc(-c3ccc(C(F)(F)F)cn3)cc2c1=O
11.4

Bench note: what CI Mean did Cc1ccc(-c2cc3c(=O)n([C@@H](C)CO)cnc3c(-c3cccnc3)n2)cc1 show?
1200

What measured CI Mean goes with CC(C)(O)Cn1cnc2c(-c3cccnc3)nc(-c3ccc(Cl)cc3)cc2c1=O ?
33.7

State the recorded CI Mean for this entry: C[C@H](n1cnc2c(-c3cnn(C)c3)nc(-c3ccc(Cl)cc3)cc2c1=O)C(C)(C)O
43.3

Query (compound): Cn1cc(-c2nc(-c3ccc(C(F)(F)F)cn3)cc3c(=O)n(CC(C)(C)O)cnc23)cn1 ; field requested: CI Mean
10.7

Looking for the measured CI Mean of Cn1cc(-c2nc(-c3ccc(C(F)(F)F)nc3)cc3c(=O)n(CC(C)(C)O)cnc23)cn1 , can you help?
40.3

====

assay-notes: In vivo PK study in male Sprague Dawley rats
details: rats, 1 mg/kg IV
readout-label: CI Mean (mL/min/kg)
Give the value, in units of mL/min/kg, as a plain number.

Look at this compound and give its reported CI Mean. Cn1cc(-c2nc(-c3ccc(C(F)(F)F)nc3)cc3c(=O)n(CC(C)(C)O)cnc23)cn1
91.3

Could you share which CI Mean value was measured for CC(C)(O)Cn1cnc2c(-c3cccnc3)nc(-c3ccc(C(F)(F)F)cn3)cc2c1=O ?
29.5

For C[C@@H](CO)n1cnc2c(-c3cccc(F)c3)nc(-c3ccc(Cl)cc3)cc2c1=O , what is its reported CI Mean?
295

Fill in: CI Mean of O=c1c2cc(-c3ccc(C(F)(F)F)nc3)nc(-c3cccnc3)c2ncn1[C@@H]1COC[C@H]1O is ___
228

Can you share its CI Mean? I mean this compound: C[C@@H](CO)n1cnc2c(-c3cccnc3)nc(-c3ccc(C(F)(F)F)cn3)cc2c1=O
112

Please give the measured CI Mean for this compound: C[C@H](n1cnc2c(-c3cnn(C)c3)nc(-c3ccc(Cl)cc3)cc2c1=O)C(C)(C)O
143

What does the data say about its CI Mean? Entry: Cn1cc(-c2nc(-c3ccc(C(F)(F)F)cn3)cc3c(=O)n(CC(C)(C)O)cnc23)cn1
26

====

assay-notes: CT26 syngeneic colon cancer model, AhR antagonist with PD-L1 antibody
Type: in vivo
details: female, Balb/c, mouse, in vivo, po; CT26 model, dose 10 mg/kg
readout-label: Cmax (µM)
Lab book: enter the figure in µM, no units written.

Reported Cmax for CC(C)(O)Cn1cnc2c(-c3cccnc3)nc(-c3ccc(C(F)(F)F)nc3)cc2c1=O [Compound 9] : what is it?
4.96

Give the measured Cmax of C[C@H](n1cnc2c(-c3cnn(C)c3)nc(-c3ccc(Cl)cc3)cc2c1=O)C(C)(C)O [Compound 30] .
5.88

Consider the molecule shown here: C[C@@H](CO)n1cnc2c(-c3cccnc3)nc(-c3ccc(C(F)(F)F)cn3)cc2c1=O [Compound 46] What is its recorded Cmax?
17.3

====

Please respond with reported CLint scaled at 1 μM for every item in the list.
assay-notes: Hepatocyte Stability Assay, human
Format: in vitro ADME
details: cryopreserved hepatocytes in suspension; human hepatocytes; read-out: Human hepatocyte clearance

# input compound: C[C@H](O)Cn1cnc2c(-c3cnn(C)c3)nc(-c3ccc(C(F)(F)F)cn3)cc2c1=O [Compound 142] ; wanted: its CLint scaled at 1 μM
< 20 mL/min/kg

What does the data say about its CLint scaled at 1 μM? Entry: C[C@@H](CO)n1cnc2c(-n3ccnc3)nc(-c3ccc(C(F)(F)F)cn3)cc2c1=O [Compound 162]
< 20 mL/min/kg

Give its CLint scaled at 1 μM value. Item: Cc1ccc(-c2cc3c(=O)n([C@@H](C)CO)cnc3c(-c3cccnc3)n2)cc1 [Compound 17]
20 to 50 mL/min/kg

Returns the measured CLint scaled at 1 μM for the input compound. Input: Cn1cc(-c2nc(-c3ccc(C(F)(F)F)nc3)cc3c(=O)n([C@H]4COC[C@@H]4O)cnc23)cn1 [Compound 114]
< 20 mL/min/kg

# get_value(readout='CLint scaled at 1 μM', item= O=c1c2cc(-c3ccc(Cl)cc3)nc(-c3cccnc3)c2ncn1C[C@@H](O)C(F)(F)F (single isomer, unassigned) [185 enantiomer 1] )
< 20 mL/min/kg

Give its CLint scaled at 1 μM value. Item: O=c1c2cc(-c3ccc(C(F)(F)F)cn3)nc(-c3cccnc3)c2ncn1[C@H]1COC[C@H]1O [Compound 145]
< 20 mL/min/kg

Recorded CLint scaled at 1 μM of O=c1c2cc(-c3ccc(Cl)cc3)nc(-c3cccnc3)c2ncn1[C@H]1COC[C@@H]1O [Compound 125] , please.
< 20 mL/min/kg

====

test-system: AHR (Homo sapiens)
Construct: other cell line with a DRE-luciferase reporter stably transfected; endogenous in cells
Sequence (P35869 11-848): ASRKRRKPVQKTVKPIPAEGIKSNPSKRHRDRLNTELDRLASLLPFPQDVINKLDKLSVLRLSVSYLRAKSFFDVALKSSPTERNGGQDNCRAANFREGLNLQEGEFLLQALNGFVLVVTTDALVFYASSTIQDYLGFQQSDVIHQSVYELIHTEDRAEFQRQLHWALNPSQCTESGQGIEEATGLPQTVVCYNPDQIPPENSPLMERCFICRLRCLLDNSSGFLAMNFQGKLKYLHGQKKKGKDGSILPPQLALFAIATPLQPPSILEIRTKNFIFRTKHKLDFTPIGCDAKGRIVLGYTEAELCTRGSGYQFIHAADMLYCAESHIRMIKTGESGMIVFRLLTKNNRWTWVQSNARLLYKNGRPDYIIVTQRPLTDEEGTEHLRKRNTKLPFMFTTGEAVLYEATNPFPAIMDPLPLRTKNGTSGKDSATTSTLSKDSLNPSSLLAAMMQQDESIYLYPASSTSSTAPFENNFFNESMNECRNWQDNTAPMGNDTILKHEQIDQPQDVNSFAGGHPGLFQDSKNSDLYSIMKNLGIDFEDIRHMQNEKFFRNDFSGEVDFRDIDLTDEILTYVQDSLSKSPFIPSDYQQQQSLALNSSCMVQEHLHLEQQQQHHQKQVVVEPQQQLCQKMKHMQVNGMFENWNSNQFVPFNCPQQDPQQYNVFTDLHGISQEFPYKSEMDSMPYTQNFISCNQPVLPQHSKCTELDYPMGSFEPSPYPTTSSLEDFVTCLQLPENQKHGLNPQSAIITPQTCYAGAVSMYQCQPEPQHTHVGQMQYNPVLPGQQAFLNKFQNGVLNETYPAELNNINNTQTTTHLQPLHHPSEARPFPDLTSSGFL
assay-notes: DRE-Luciferase Reporter Assay, HepG2 AhR-Lucia reporter cells
details: with AHR activating ligand at EC50, read-out: HepG2-Luc IC50
Answer each item with its documented IC50.

Look up IC50 for this molecule: C[C@@H](CO)n1cnc2c(-c3cn[nH]c3)nc(-c3ccc(C(F)(F)F)nc3)cc2c1=O [Compound 62]
< 100 nM

What does the data say about its IC50? Entry: C[C@@H](CO)n1cnc2c(-n3ccnc3)nc(-c3ccc(OC(F)(F)F)cc3)cc2c1=O [Compound 44]
< 100 nM

For the molecule shown here, Cn1cc(-c2nc(-c3ccc(C(F)(F)F)cn3)cc3c(=O)n([C@@H]4COC[C@H]4O)cnc23)cn1 [Compound 138] , give the reported IC50.
< 100 nM

// query IC50 value for entry COC(=O)c1ccc(-c2cc3c(=O)n([C@@H](C)CO)cnc3c(-c3cccnc3)n2)cn1 [Compound 52]
> 500 nM

Quick one: IC50 for C[C@@H](CO)n1cnc2c(-c3cccnc3)nc(-c3cccnc3)cc2c1=O [Compound 20] ?
100 to 500 nM

Tell me the measured IC50 of C[C@@H](CO)n1cnc2c(-c3cccc(F)c3)nc(-c3ccc(C(F)(F)F)cn3)cc2c1=O [Compound 47] , please.
< 100 nM

Fill blank: measured IC50 of the molecule O=c1c2cc(-c3ccc(Cl)cc3)nc(-c3cccnc3)c2ncn1C[C@@H](O)C(F)(F)F (single isomer, unassigned) [185 enantiomer 1] is ____.
< 100 nM

I have this molecule here, C[C@@H](CO)n1cnc2c(N3CCCCC3)nc(-c3ccc(C(F)(F)F)nc3)cc2c1=O [Compound 175] , and I need its recorded IC50.
< 100 nM

Form field: reported IC50 of COCCc1cc2c(=O)n([C@@H](C)CO)cnc2c(-c2cccnc2)n1 [Compound 192]
> 500 nM

Which IC50 value is on record for Cc1cc(Cl)ccc1-c1cc2c(=O)n(CC(C)(C)O)cnc2c(-c2cnn(C)c2)n1 [Compound 61] ?
100 to 500 nM

Quick check: IC50 of C[C@@H](CO)n1cnc2c(-c3cccc(F)c3)nc(-c3ccc(C(F)(F)F)nc3)cc2c1=O [Compound 8] ?
< 100 nM

Can you share its IC50? I mean this molecule: CC(C)(O)Cn1cnc2c(N3CCCCC3)nc(-c3ccc(C(F)(F)F)nc3)cc2c1=O [Compound 179]
< 100 nM

GET /values?readout=IC50&item= C[C@@H](O)Cn1cnc2c(-c3cccnc3)nc(-c3ccc(C(F)(F)F)cn3)cc2c1=O [Compound 144]
< 100 nM

Reported IC50 for C[C@@H](CO)n1cnc2c(-c3cccc(F)c3)nc(-c3ccc(OC(F)(F)F)cc3)cc2c1=O [Compound 49] : what is it?
< 100 nM

Which IC50 is reported for this molecule? C[C@@H](CO)n1cnc2c(-c3cnsc3)nc(-c3ccc(Cl)cc3)cc2c1=O [Compound 58]
< 100 nM

Form field: reported IC50 of C[C@@H](CO)n1cnc2c(-c3cccnc3)nc(-c3ccc(OC(F)(F)F)nc3)cc2c1=O [Compound 50]
< 100 nM

Bench note: what IC50 did CC(C)(O)Cn1cnc2c(-n3ccnc3)nc(-c3ccc(C(F)(F)F)cn3)cc2c1=O [Compound 160] show?
< 100 nM

Entry under review: C[C@@H](O)Cn1cnc2c(-c3cccnc3)nc(-c3ccc(C(F)(F)F)nc3)cc2c1=O [Compound 112] . Reported IC50?
< 100 nM

IC50 lookup needed for C[C@H](O)Cn1cnc2c(-c3cnn(C)c3)nc(-c3ccc(C(F)(F)F)nc3)cc2c1=O [Compound 109] , thanks.
< 100 nM

What IC50 value was documented for this molecule, C[C@@H](CO)n1cnc2c(-c3cccnc3)nc(-c3ccccn3)cc2c1=O [Compound 182] ?
100 to 500 nM

Looking for the measured IC50 of C[C@@H](CO)n1cnc2c(-c3cccnc3)nc(-c3cnc(C4CC4)s3)cc2c1=O [Compound 66] , can you help?
< 100 nM

IC50 for O=c1c2cc(-c3ccc(C(F)(F)F)nc3)nc(-c3cccnc3)c2ncn1[C@@H]1COC[C@H]1O [Compound 79] ?
< 100 nM

Look up IC50 for this molecule: Cn1cc(-c2nc(-c3ccc(C4CC4)nc3)cc3c(=O)n(C[C@@H](O)C(F)(F)F)cnc23)cn1 [Compound 135]
< 100 nM

Suppose we examine the molecule C[C@@H](CO)n1cnc2c(-c3cccnc3)nc(-c3cnc(C(F)(F)F)nc3)cc2c1=O [Compound 86] ; what IC50 value has been reported?
< 100 nM

// lookup IC50 for Cn1cc(-c2nc(-c3ccc(Cl)cc3)cc3c(=O)n([C@H]4COC[C@H]4O)cnc23)cn1 [Compound 92]
< 100 nM

Name the reported IC50 value associated with the molecule C[C@@H](n1cnc2c(-c3cccnc3)nc(-c3ccc(Cl)cc3)cc2c1=O)C(C)(C)O [Compound 33]
< 100 nM

Which IC50 value belongs to Cc1ncccc1-c1nc(-c2ccc(C(F)(F)F)nc2)cc2c(=O)n([C@@H](C)CO)cnc12 [Compound 63] ?
100 to 500 nM

Given the molecule O=c1c2cc(-c3ccc(OC(F)(F)F)cc3)nc(-c3cccnc3)c2ncn1CCO [Compound 72] , what is its reported IC50?
< 100 nM

// query IC50 value for entry COC[C@H](C)n1cnc2c(-c3cccnc3)nc(-c3ccc(C)cc3)cc2c1=O [Compound 45]
< 100 nM

May I ask what IC50 has been recorded for C[C@@H](CO)n1cnc2c(-c3cnn(C)c3)nc(-c3ccc(OC(F)(F)F)cc3)cc2c1=O [Compound 25] ?
< 100 nM

Every entry's value here was drawn from patent US20230295152A1.
